- assay protocol: Study A: single oral dose pharmacokinetics in healthy subjects
- Assay type: in vivo, human
- condition notes: human, plasma, po, 80 mg, single oral dose 80 mg, fasted, mean ± SD; read-out: AUC0-t
property measured: AUC(0-t) (ng·h/mL)

compound="COc1ccccc1[C@H](Cn1c(=O)n(C(C)(C)C(=O)O)c(=O)c2c(C)c(-c3ncco3)sc21)OC1CCOCC1 [Compound 1]" property_measured=AUC(0-t) assay_value=363

* * *

- assay protocol: Study A: single oral dose pharmacokinetics in healthy subjects
- Type: in vivo, human
- condition notes: human, plasma, po, 200 mg, single oral dose 200 mg, fasted, mean ± SD; read-out: AUC0-12
- Description: Study A evaluated the safety and tolerability of 30, 80, 200, 500, 800, and 1000 mg in the fasted state and 200 mg following a high fat meal (fed state) to cohorts of 8 healthy subjects (6 active and 2 placebo control per group). Table 12 summarizes PK parameters (mean) under fasted conditions of Study A. The reported factors may vary up to about 2%.
property measured: AUC(0-t) (ng·h/mL)

compound_string=COc1ccccc1[C@H](Cn1c(=O)n(C(C)(C)C(=O)O)c(=O)c2c(C)c(-c3ncco3)sc21)OC1CCOCC1 assay_value=1000
